Readings of GI50 for the listed molecules
# System: SW-620
# Procedure Text: NCI tumour cell line growth inhibition, 48 h
Active and inactive are the calls of the source. No stated cut-off is given here; in the data, active = GI50 up to about 1.1 µM and inactive = higher.
Test Readout: GI50

molecule="Cc1ccc(S(=O)(=O)N2CC(CCN)c3ccccc32)cc1 (stereo unspecified)" study_target=SW-620 result="4.34 µM (inactive)"
molecule="C=CCN1CCC23c4c5ccc(O)c4OC2C(=NN=C2CCC4(O)C6Cc7ccc(O)c8c7C4(CCN6CC=C)C2O8)CCC3(O)C1C5 (stereo unspecified)" study_target=SW-620 result="21.4 µM (inactive)"
molecule=NC1(C(=O)O)CCCC1 study_target=SW-620 result="> 625 µM (inactive)"
molecule=NC1=C(N2CCOCC2)C(=O)NC2=N/C(=C\c3ccccc3)C(=O)N21 study_target=SW-620 result="> 100 µM (inactive)"
molecule=Cc1occc1C(=S)Nc1ccc(Cl)c(/C=N/OC(C)C)c1 study_target=SW-620 result="20.9 µM (inactive)"
molecule="O=C1OC2(OC2c2ccc(Cl)cc2)c2ccccc21 (stereo unspecified)" study_target=SW-620 result="> 100 µM (inactive)"
molecule="COc1cc(-c2coc3c(OC)c(OC4OC(CO)C(O)C(O)C4O)c(OC)cc3c2=O)cc(OC)c1C (stereo unspecified)" study_target=SW-620 result="6.1 µM (inactive)"
molecule=Cc1cc2c(=O)c3ccc(Cl)cc3[nH]c2c(C(=O)O)c1C study_target=SW-620 result="> 100 µM (inactive)"
molecule=C=CCP(=O)(CC=C)C(Cl)Cl study_target=SW-620 result="> 100 µM (inactive)"
molecule=CNn1c(-c2ccccc2)n[nH]c1=O study_target=SW-620 result="> 100 µM (inactive)"
molecule=O=C(c1cccs1)N(C(=O)N1CCC(c2ccccc2)CC1)c1ccccc1 study_target=SW-620 result="51.5 µM (inactive)"
